Where do the numbers come from? From PubChem BioAssay (NCI).

System: HCC-2998 colon
TEST_NAME: NCI tumour cell line growth inhibition, 48 h

- MOLECULE: "CSc1nc(NC2OCC(OC(C)=O)C(OC(C)=O)C2OC(C)=O)c2c(n1)OCC2=O (stereo unspecified)"
  EXPERIMENTAL_TARGET: "HCC-2998 colon"
  TGI: "> 100 µM"
- MOLECULE: "CO/N=C(/C(=O)Nc1c[n+](CC(=O)[O-])cs1)c1csc(N)n1"
  EXPERIMENTAL_TARGET: "HCC-2998 colon"
  TGI: "> 100 µM"
- MOLECULE: "Cc1ccc(/C=N/NS(=O)(=O)c2ccccc2)cc1C"
  EXPERIMENTAL_TARGET: "HCC-2998 colon"
  TGI: "> 100 µM"
- MOLECULE: "O=c1oc2ccc(Cl)cc2c(=O)n1-c1ccc(F)cc1F"
  EXPERIMENTAL_TARGET: "HCC-2998 colon"
  TGI: "8.72 µM"
- MOLECULE: "OCC(O)COCn1cc(Cn2ncc3c(NCc4ccccc4)ncnc32)nn1 (stereo unspecified)"
  EXPERIMENTAL_TARGET: "HCC-2998 colon"
  TGI: "> 100 µM"
- MOLECULE: "Cn1ccc(=NS(=O)(=O)c2ccccc2)cc1"
  EXPERIMENTAL_TARGET: "HCC-2998 colon"
  TGI: "> 100 µM"
- MOLECULE: "N#Cc1ccc(OCCSCCCCCCCCCCSCCOc2ccc(C#N)cc2)cc1"
  EXPERIMENTAL_TARGET: "HCC-2998 colon"
  TGI: "> 100 µM"
- MOLECULE: "O=[N+]([O-])c1cc(I)cc(/C=N/NS(=O)(=O)c2ccc(Cl)cc2)c1O"
  EXPERIMENTAL_TARGET: "HCC-2998 colon"
  TGI: "46.3 µM"
- MOLECULE: "CCCCC(=O)c1c(O)ccc2c(C)cc(=O)oc12"
  EXPERIMENTAL_TARGET: "HCC-2998 colon"
  TGI: "> 100 µM"
- MOLECULE: "O=C1/C(=C/c2ccc(F)cc2)CN(C(=O)C(Cl)Cl)C/C1=C\\c1ccc(F)cc1"
  EXPERIMENTAL_TARGET: "HCC-2998 colon"
  TGI: "0.351 µM"
- MOLECULE: "COC(=O)N/N=C(\\C)CC(=O)Nc1cccc([N+](=O)[O-])c1"
  EXPERIMENTAL_TARGET: "HCC-2998 colon"
  TGI: "> 100 µM"

###

System: RXF 393 renal
TEST_NAME: NCI tumour cell line growth inhibition, 48 h
TGI values for the compounds below.

- COMPOUND: "COCN1C(=N)C(C(=O)OC(C)(C)C)=C2C=C(O)C=CC21C (stereo not given)"
  RESULT_COMPARATOR: "="
  TGI, µM: 19.3
- COMPOUND: "N#CC1(N2CCCC2)CCC2(CC1)OCCO2"
  RESULT_COMPARATOR: ">"
  TGI, µM: 100
- COMPOUND: "COc1ccc(-c2oc3c(OC)c(OC)c(OC)c(O)c3c(=O)c2OC)cc1O"
  RESULT_COMPARATOR: "="
  TGI, µM: 0.504
- COMPOUND: "CCOC(=O)Nc1ccc2c(c1)C(=O)N(CC)c1ccccc1O2"
  RESULT_COMPARATOR: "="
  TGI, µM: 54.9
- COMPOUND: "CC(=O)[CH-]C(C)=O.CC(=O)[CH-]C(C)=O.[Cl-].[O]=[V]"
  RESULT_COMPARATOR: "="
  TGI, µM: 24.6
- COMPOUND: "CC(C)=NOC(=O)OC[C@H]1O[C@@H](n2cnc3c(N)ncnc32)C(O)C1O (stereo not given in full)"
  RESULT_COMPARATOR: ">"
  TGI, µM: 100
- COMPOUND: "O=c1[nH]nc(CNc2ccc(Cl)cc2Cl)c2ccccc12"
  RESULT_COMPARATOR: "="
  TGI, µM: 34.9
- COMPOUND: "O=C1NC(=O)C(C(c2ccc([N+](=O)[O-])cc2)C2C(=O)NC(=O)NC2=O)C(=O)N1"
  RESULT_COMPARATOR: ">"
  TGI, µM: 100
- COMPOUND: "COc1ccc(-c2cc(-c3ccc(OC)cc3)nc(NCCCNc3ccnc4cc(Cl)ccc34)n2)cc1"
  RESULT_COMPARATOR: "="
  TGI, µM: 2.74
- COMPOUND: "CC[O-].CC[O-].O=C([CH-]C(=O)c1ccccc1)CCCCCCC(=O)[CH-]C(=O)c1ccccc1.[Ti+4]"
  RESULT_COMPARATOR: ">"
  TGI, µM: 100
- COMPOUND: "CCc1ccc(Cc2ccc(CC)c(NC(=O)C(=O)C3NC(=S)NC3=O)c2CC)c(CC)c1NC(=O)C(=O)C1NC(=S)NC1=O (stereo not given)"
  RESULT_COMPARATOR: ">"
  TGI, µM: 100
- COMPOUND: "O=c1c(C(c2ccc([N+](=O)[O-])cc2)c2c(O)c3ccccc3n(-c3ccccc3)c2=O)c(O)c2ccccc2n1-c1ccccc1"
  RESULT_COMPARATOR: "="
  TGI, µM: 40.1
- COMPOUND: "CCCCC(=O)c1c(O)ccc2c(C)cc(=O)oc12"
  RESULT_COMPARATOR: ">"
  TGI, µM: 100
- COMPOUND: "CN/N=C(\\C(=O)Nc1ccc(C(F)(F)F)cc1[N+](=O)[O-])C(c1cnc2ccc([N+](=O)[O-])cc2n1)[N+](=O)[O-] (stereo not given)"
  RESULT_COMPARATOR: ">"
  TGI, µM: 100
- COMPOUND: "O=c1cc(-c2ccccc2)oc2c1ccc1ccccc12"
  RESULT_COMPARATOR: "="
  TGI, µM: 64.4
- COMPOUND: "Cc1cc(=O)oc2cc3oc(N(C)c4ccccc4)nc(=O)c3cc12"
  RESULT_COMPARATOR: ">"
  TGI, µM: 100
- COMPOUND: "O=C(C=Nc1ccccc1S)c1ccco1"
  RESULT_COMPARATOR: "="
  TGI, µM: 29
- COMPOUND: "COc1ccccc1/C=N/Nc1nnc2c3ccccc3c3ncccc3c2n1"
  RESULT_COMPARATOR: "="
  TGI, µM: 55.6
- COMPOUND: "O=C1NC2(CCCC2)C2CCCCC12O (stereo not given)"
  RESULT_COMPARATOR: ">"
  TGI, µM: 100
- COMPOUND: "NNC(=O)CC(=O)Nc1ccc(S(=O)(=O)c2ccc(NC(=O)CC(=O)NN)cc2)cc1"
  RESULT_COMPARATOR: ">"
  TGI, µM: 100
